B1: POMT2 (parent)
chain: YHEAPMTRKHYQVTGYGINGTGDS

variants of: B1; test: protein stability index of a GFP-peptide fusion (GPS, HEK-293T) (PSI 1-6); higher = more stable; conditions: c terminus: a fixed tail appended;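 note: lentivirally expressed fusions sorted by FACS into six bins by GFP to DsRed ratio, PSI derived from sequencing read proportions per bin multiplied by bin number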
Answer each item with its documented protein stability index.
Give bare numbers.

Variant descriptor | protein stability index
G20V | 1.98

# batch: return protein stability index for each of the 2 variants below
1. G17N
2. G22T

2.03
1.95

Hello, the source for this data is the supplement of paper PMC10567573, in case you need it.
